// read-out pKi, gathered for Cannabinoid receptor 1 (Homo sapiens, UniProt P21554) from published studies
pKi: −log10 of the molar value.

>  <Molecule>
COc1ccc(S(=O)(=O)c2cc(OC)ccc2S(=O)(=O)c2ccc([C@H](C)NS(=O)(=O)c3ccc(C)cc3)cc2)cc1

>  <pKi>
5.72

$$$$
>  <Molecule>
N#Cc1ccc(S(=O)(=O)NCC[C@@H]2CC[C@@H](c3ccc(Cl)cc3Cl)N(c3ccc(Cl)cc3)C2)cc1

>  <pKi>
8.38

$$$$
>  <Molecule>
O=C(NC1CCCCC1)c1cn(-c2ccc(Cl)cc2)c(-c2cc(Cl)ccc2Cl)n1

>  <pKi>
7.60

$$$$
>  <Molecule>
COc1ccc(-c2c(C#N)c(C(=O)NN3CCCC3)nn2-c2ccc(Cl)cc2Cl)cc1

>  <pKi>
8.70

$$$$
>  <Molecule>
O=C(NC1CCN(c2ncnc3c2nc(-c2ccccc2Cl)n3-c2ccc(Cl)cc2)CC1)c1ccc(F)c(F)c1

>  <pKi>
8.52

$$$$
>  <Molecule>
CCN(CC)c1ccc(CN(C2CCCCC2)S(=O)(=O)c2ccc(OC)cc2)cc1

>  <pKi>
6.18

$$$$
>  <Molecule>
O=C(N[C@H]1Cc2ccccc2[C@@H]1O)c1cn(-c2ccc(Cl)cc2)c(-c2ccccc2Cl)n1 (racemic)

>  <pKi>
7.39

$$$$
>  <Molecule>
Cc1c(C(=O)N[C@H]2CCCC[C@@H]2O)nc(-c2ccccc2Cl)n1-c1ccc(Cl)cc1

>  <pKi>
8.16

$$$$

====

// read-out Ki, gathered for Cannabinoid receptor 1 (Homo sapiens, UniProt P21554) from published studies
Readout type: Ki (nM)

>  <Compound>
CS(=O)(=O)N1CCN(C[C@@H]2CC[C@@H](c3ccc(Cl)cc3Cl)N(c3ccc(Cl)cc3)C2)CC1

>  <Bound operator>
=

>  <Readout value>
690

$$$$
>  <Compound>
CC(C)CC(=O)NC1CCN(c2ncnc3c2nc(-c2ccccc2Cl)n3-c2ccc(Cl)cc2)CC1

>  <Bound operator>
=

>  <Readout value>
4.01

$$$$
>  <Compound>
COc1cc(C(O)c2cccs2)cc(OC)c1-c1cc(Cl)cc(Cl)c1 (centres undefined)

>  <Bound operator>
>

>  <Readout value>
1000

$$$$
>  <Compound>
CCOc1ccc(Cc2nc3cc(C(=O)N(C)CC)ccc3n2CCC(C)C)cc1

>  <Bound operator>
=

>  <Readout value>
3170

$$$$
>  <Compound>
N=C(NC1CCN(c2ncnc3c2nc(-c2ccccc2Cl)n3-c2ccc(Cl)cc2)CC1)c1ccc(F)cc1

>  <Bound operator>
=

>  <Readout value>
780

$$$$
>  <Compound>
CN=C(NS(=O)(=O)c1ccc(C(F)(F)F)cc1)N1C[C@@H](c2ccccc2)C(c2ccc(Cl)cc2)=N1

>  <Bound operator>
=

>  <Readout value>
293

$$$$
>  <Compound>
Cc1c(C(=O)NN2CCCCC2)nn(-c2ccc(Cl)cc2Cl)c1-c1ccc(Br)cc1

>  <Bound operator>
=

>  <Readout value>
76.7

$$$$
>  <Compound>
Cc1c(C(=O)NN2CCCCC2)nn(-c2ccc(Cl)cc2Cl)c1-c1ccc(C#CCCOCCCCCC(=O)OC(C)(C)C)cc1

>  <Bound operator>
=

>  <Readout value>
45

$$$$
>  <Compound>
Clc1ccc(-n2c(-c3ccccc3Cl)nc3c(N4CCC(Nc5ccccn5)CC4)ncnc32)cc1

>  <Bound operator>
=

>  <Readout value>
2.4

$$$$
